List of z-score values.
Target: NADPH oxidase 4 (Homo sapiens) (UniProt Q9NPH5)
Sequence (Q9NPH5 whole entry, looked up): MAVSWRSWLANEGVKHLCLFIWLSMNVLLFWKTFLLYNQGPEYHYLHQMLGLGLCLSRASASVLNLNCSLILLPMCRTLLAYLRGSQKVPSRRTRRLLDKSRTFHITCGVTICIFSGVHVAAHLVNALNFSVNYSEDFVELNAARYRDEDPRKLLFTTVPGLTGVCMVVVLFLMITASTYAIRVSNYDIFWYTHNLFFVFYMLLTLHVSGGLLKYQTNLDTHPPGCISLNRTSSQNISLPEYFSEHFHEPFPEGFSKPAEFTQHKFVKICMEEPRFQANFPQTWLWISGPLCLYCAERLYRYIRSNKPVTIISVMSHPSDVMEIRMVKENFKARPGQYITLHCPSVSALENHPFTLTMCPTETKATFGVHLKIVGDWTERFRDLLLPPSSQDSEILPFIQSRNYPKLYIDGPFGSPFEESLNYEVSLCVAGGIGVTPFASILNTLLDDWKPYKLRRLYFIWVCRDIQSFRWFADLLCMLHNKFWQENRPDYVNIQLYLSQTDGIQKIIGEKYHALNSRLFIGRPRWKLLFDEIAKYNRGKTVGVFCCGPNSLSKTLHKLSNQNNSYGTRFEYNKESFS
Assay: NOX4-dependent H2O2 signal modulators, primary screen, NOX inhibitor project, cell-based, HEK293-NOX4, tetracycline-induced, Amplex Red fluorescence (AID 1160)
Conditions: 45 min, higher = more signal, called active from +8 up or from −8 down
Give a plain numeric answer without units written out.

{"columns": ["compound", "recorded.endpoint", "recorded.result"],
 "data": [
  ["Cc1ccc(S[C@]2(C(=O)NC(C)C)CC(=O)N(C3Cc4ccccc4C3)[C@@H]2c2ccc(CO)cc2I)cc1", "z-score", -1.89],
  ["CCCCN1CC=CC23O[C@@H]4C=CCOC(=O)[C@@H]4[C@H]2C(=O)N(CCCO)[C@@H]3C1=O (stereo partly specified)", "z-score", -0.101],
  ["CCOC(=O)[C@H]1C/C=C/C[C@H](C(=O)OCC)C(=O)O[C@H]2[C@@H](OC)O[C@H](CO)[C@@H](OC(=O)Nc3ccc(OC)cc3)[C@@H]2OC1=O", "z-score", -1.29],
  ["COC(=O)[C@@]1(Cc2ccccc2)[C@H]2c3cc(C(=O)N4CCCC4)n(Cc4cc(F)cc5c4OCOC5)c3C[C@H]2CN1C(=O)c1ccccc1", "z-score", 0.0378],
  ["COc1ccc([Si](C)(C)[C@@H]2[C@@H](CCn3cc([C@H](O)c4ccccc4)nn3)O[C@]3(C(=O)N(Cc4ccc(N5CCOC5=O)cc4)c4ccccc43)[C@H]2C)cc1", "z-score", 2.36]
]}

Consider the record given below.
Request: Please report the measured z-score for NC(=O)NCC#Cc1ccc2c(c1)[C@]1(C(=O)N2)[C@H](c2ccc(O)cc2)N2[C@H](c3ccccc3)[C@H](c3ccccc3)OC(=O)[C@H]2[C@@H]1C(=O)Nc1nc2ccccc2s1
Result: -1.01

====

Target: Dihydroorotate dehydrogenase (quinone), mitochondrial (Plasmodium falciparum (isolate 3D7))
Assay: PfDHODH enzyme inhibitors, primary screen, biochemical, C-terminal His tag, absorbance 600 nm (AID 1175);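 also: recombinant parasite enzyme with a five histidine tag at its C terminus; test concentration not given here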
Conditions: DCIP absorbance 600 nm, higher = more signal, called active from +8 up or from −8 down
recorded.endpoint: composite z-score
Format: numeric value only, no unit, no commentary.

{"columns": ["compound", "composite z-score"],
 "data": [
  ["C=CCOC(=O)[C@@H]1[C@H]2C(=O)O[C@H](c3ccccc3)[C@H](c3ccccc3)N2[C@H](c2ccc(OCCOC(=O)[C@H]3C[C@H]4C(=O)N[C@@H](CCCCNC(C)=O)C(=O)N4[C@H]3c3cccc(OCCO)c3)cc2)[C@@]12C(=O)Nc1ccc(I)cc12", -0.406],
  ["CC(C)CCC[C@@H](C)[C@H]1CC[C@@]2(C)C3=C(CC[C@]12C)[C@@]1(C)CC[C@H](OC(=O)c2ccc(Br)cc2)C(C)(C)C1CC3 (some centres not stated)", -1.4],
  ["O=C1NC(=O)C2C1C=CC(C(O)c1c(F)cccc1Cl)N2Nc1ccccn1 (configuration not stated)", 0.722],
  ["COCCOC(=O)N1C(=O)[C@@]2(c3cc(C#CCNC(N)=O)ccc31)[C@H](C(=O)N1CCCCCCC1)[C@H]1C(=O)O[C@H](c3ccccc3)[C@H](c3ccccc3)N1[C@@H]2c1ccc(O)cc1", -0.376],
  ["O=C1O[C@@H](c2ccccc2)[C@@H](c2ccccc2)N2[C@@H](c3ccccc3OCCO)[C@]3(C(=O)Nc4ccccc43)[C@@H](C(=O)NC[C@H](O)c3ccccc3)[C@H]12", 1.65]
]}

Request: Give composite z-score for COc1cc(CO)cc(I)c1O[C@H]1C=C(C(=O)NCCO)C[C@@H](N(Cc2ccc(F)cc2)C(=O)C2CCCO2)[C@@H]1O (some centres not stated)
Result: -0.737

Request: State its composite z-score for this compound: CC(C)(C)OC(=O)CC[C@]1(C(=O)NCCN2CCOCC2)N=C(c2ccc(OCCCO)cc2)O[C@H]1c1ccccc1
Result: -1.63
